Property: pIC50; scope: individual compounds
target: PIP4K2B (Homo sapiens, UniProt P78356)
Sequence (P78356 whole entry, species assumed): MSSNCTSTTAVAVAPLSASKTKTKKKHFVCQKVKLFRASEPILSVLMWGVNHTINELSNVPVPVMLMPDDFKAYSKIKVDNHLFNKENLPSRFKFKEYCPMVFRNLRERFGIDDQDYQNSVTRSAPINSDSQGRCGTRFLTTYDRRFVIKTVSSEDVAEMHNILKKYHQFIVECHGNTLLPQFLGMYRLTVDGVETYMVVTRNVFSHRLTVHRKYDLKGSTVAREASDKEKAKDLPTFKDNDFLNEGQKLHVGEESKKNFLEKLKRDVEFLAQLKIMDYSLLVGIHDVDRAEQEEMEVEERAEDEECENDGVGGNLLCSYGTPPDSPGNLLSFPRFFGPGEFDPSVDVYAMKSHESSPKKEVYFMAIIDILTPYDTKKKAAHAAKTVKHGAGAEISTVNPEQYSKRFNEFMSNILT
pIC50: −log10 of the molar value.

| compound | result |
| --- | --- |
| CC1Oc2cc(N3CCCC3=O)ccc2-c2cnc(Nc3cncc(C(F)(F)F)c3)cc21 (centres unmarked) [Example 81] | < 6.00 |
| CC(Cc1ccccc1)C(=O)Nc1cncc(Nc2cc3c(cn2)-c2ccc(N4CCCC4=O)cc2OC3C)c1 (centres unmarked) [Example 133] | 7.00 to 8.00 |
| CC1c2cc(Nc3cnc4c(c3)N3C(=O)CC[C@H]3CO4)ncc2-c2ccc(N3CCCC3=O)cc2N1C (some centres unmarked) [Example 44] | 7.00 to 8.00 |
| O=C1CCCN1c1ccc2c(c1)OCc1cc(Nc3cnc4c(c3)N(C(=O)C3CC3)CCO4)ncc1-2 [Example 76] | 8.00 to 9.00 |
| CC1Oc2cc(N3CCCC3=O)ccc2-c2cnc(Nc3cccnn3)cc21 (centres unmarked) [Example 128] | 6.00 to 7.00 |

What measured pIC50 goes with CC1Oc2cc(N3CCCC3=O)ccc2-c2cnc(Nc3cncc(N4CCN(Cc5cscn5)C4=O)c3)cc21 (centres unmarked) [Example 56] ?
8.00 to 9.00

I have this compound here, CC1Oc2cc(N3CCCC3=O)c(F)cc2-c2cnc(Nc3cnc4c(c3)N3C(=O)CC[C@H]3CO4)cc21 (some centres unmarked) [Example 47] , and I need its recorded pIC50.
8.00 to 9.00

Form field: reported pIC50 of CN(C)C(=O)c1ccc2c(c1)OC(C1CC1)c1cc(Nc3cccnc3)ncc1-2 (centres unmarked) [Example 34]
7.00 to 8.00

----------
The reader will find pIC50 measurements below, all made with PIP4K2B (Homo sapiens).
pIC50: −log10 of the molar value.

Example entries and their recorded answers appear below.
| compound | system | result |
| --- | --- | --- |
| CC1Oc2cc(N3CCCC3=O)ccc2-c2cnc(Nc3cncc(NC(=O)c4cnc5ccccn45)c3)cc21 (stereo not drawn) [Example 143] | PIP4K2B (Homo sapiens) | 8.00 to 9.00 |
| CC1Oc2cc(N3CCCC3=O)c(F)cc2-c2cnc(Nc3cnc4c(c3)N3C(=O)C(C)(C)C[C@H]3CO4)cc21 (stereo partly drawn) [Example 153] | PIP4K2B (Homo sapiens) | 8.00 to 9.00 |
| CC1Oc2cc(N3CCCC3=O)ccc2-c2cnc(Nc3cncc(N4CCN(Cc5cccc(NC(=O)CNC(=O)/C=C/CN(C)C)c5)C4=O)c3)cc21 (stereo not drawn) [Example 178] | PIP4K2B (Homo sapiens) | 8.00 to 9.00 |
| CC1Oc2cc(N3CCCC3=O)ccc2-c2cnc(Nc3cncc(NC(=O)c4ccnnc4)c3)cc21 (stereo not drawn) [Example 125] | PIP4K2B (Homo sapiens) | 7.00 to 8.00 |
| CC1Oc2cc(N3CCCC3=O)ccc2-c2cnc(Nc3cnc4c(c3)OCCO4)cc21 (stereo not drawn) [Example 62] | PIP4K2B (Homo sapiens) | 7.00 to 8.00 |

Please report the recorded pIC50 for CC1Oc2cc(N3CCCC3=O)ccc2-c2cnc(Nc3cncc(C4(C#N)CC4)c3)cc21 (stereo not drawn) [Example 39] .
7.00 to 8.00

Looking for the measured pIC50 of CC1(C)Oc2cc(N3CCCC3=O)ccc2-c2cnc(Nc3cnc4c(c3)N3C(=O)CC[C@@H]3CO4)cc21 [Example 183] , can you help?
8.00 to 9.00

I would be grateful if you could share the reported pIC50 for CC(C)C(=O)N1CCOc2ncc(Nc3cc4c(cn3)-c3ccc(N5CCCC5=O)cc3OC4C)cc21 (stereo not drawn) [Example 84] .
8.00 to 9.00

Bench note: what pIC50 did CC1Oc2cc(N3CCCC3=O)ccc2-c2cnc(Nc3cncnc3)cc21 (stereo not drawn) [Example 80] show?
6.00 to 7.00

----------
target: PIP4K 2A (Homo sapiens); test: ADP-glo kinase assay PIP4K 2A; assay type: biochemical; parameters: 4 nM PIP4K2A (full length protein, SignalChem); purchased SignalChem; settings: compounds listed under IC50 bin headings
Sequence (P48426 whole entry): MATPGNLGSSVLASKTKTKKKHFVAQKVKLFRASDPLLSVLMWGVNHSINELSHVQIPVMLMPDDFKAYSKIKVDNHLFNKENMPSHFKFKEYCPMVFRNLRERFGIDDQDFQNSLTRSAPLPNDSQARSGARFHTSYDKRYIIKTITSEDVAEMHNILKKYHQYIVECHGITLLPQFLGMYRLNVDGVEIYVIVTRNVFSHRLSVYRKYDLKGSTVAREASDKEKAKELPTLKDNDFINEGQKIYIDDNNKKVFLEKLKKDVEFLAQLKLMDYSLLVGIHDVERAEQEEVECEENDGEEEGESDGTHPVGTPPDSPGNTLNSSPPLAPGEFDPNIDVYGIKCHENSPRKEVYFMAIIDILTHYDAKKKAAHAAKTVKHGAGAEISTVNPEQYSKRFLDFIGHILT
property measured: IC50

Check out these entries, answers already filled in.
| molecule | IC50 |
| --- | --- |
| O=C1CCCN1c1ccc2c(c1)OCc1cc(Nc3cnc4c(c3)N(C(=O)C3CC3)CCO4)ncc1-2 | ≤ 1 nM |
| CC1Oc2cc(N3CCCC3=O)ccc2-c2cnc(Nc3cncnc3)cc21 (centres unmarked) | 10 to 100 nM |
| CC1Oc2cc(N3CCCC3=O)ccc2-c2cnc(Nc3cncc(NC(=O)c4ccc5c(c4)COB5O)c3)cc21 (centres unmarked) | ≤ 1 nM |

Record COc1ncc(Nc2cc3c(cn2)-c2ccc(N4CCCC4=O)cc2OC3C)cc1N(C)C(C)=O (centres unmarked) : what is its IC50 with PIP4K 2A (Homo sapiens)?
100 to 1000 nM

Hi! What's the reported IC50 for CC1Oc2cc(N3CCCC3=O)ccc2-c2cnc(Nc3cnc4c(c3)N(S(=O)(=O)C3CC3)CCO4)cc21 (centres unmarked) on PIP4K 2A (Homo sapiens)?
1 to 10 nM

Give recorded IC50 with PIP4K 2A (Homo sapiens) for the following molecule: CC1Oc2cc(N3CCCC3=O)ccc2-c2cnc(Nc3cncc(NC(=O)c4cncc(N)n4)c3)cc21 (centres unmarked)
1 to 10 nM

Can you look up IC50 on PIP4K 2A (Homo sapiens) for CC1Oc2cc(N3CCCC3=O)ccc2-c2cnc(Nc3cnc4c(c3)N(C(=O)C(C)(C)C)CCO4)cc21 (centres unmarked) ?
≤ 1 nM

Form field: IC50 recorded for COc1ccc(C(=O)Nc2cncc(Nc3cc4c(cn3)-c3ccc(N5CCCC5=O)cc3OC4C)c2)cc1 (centres unmarked) with PIP4K 2A (Homo sapiens) (enter value)
1 to 10 nM

Provide the documented IC50 with PIP4K 2A (Homo sapiens) as the system for CC1Oc2cc(N3CCCC3=O)ccc2-c2cnc(Nc3cncc(NC(=O)c4ccc5ncoc5c4)c3)cc21 (centres unmarked)
1 to 10 nM

Tell me reported IC50 for CC1Oc2cc(N3CCCC3=O)ccc2-c2cnc(Nc3cncc(NC(=O)CCc4ccccc4)c3)cc21 (centres unmarked) , tested with PIP4K 2A (Homo sapiens).
1 to 10 nM

// fetch PIP4K 2A (Homo sapiens) IC50 for O=C1CCCN1c1ccc2c(c1)OC1(CCC1)c1cc(Nc3cnc4c(c3)N3C(=O)CC[C@H]3CO4)ncc1-2
≤ 1 nM
